- system.name: T1, CRBN, Q96SW2;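 note: pooled lentiviral library of zinc finger degron-EGFP fusions in mCherry-positive Jurkat cells, FACS-sorted after compound exposure, with degron abundance counted by next-generation sequencing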
- T1 chain: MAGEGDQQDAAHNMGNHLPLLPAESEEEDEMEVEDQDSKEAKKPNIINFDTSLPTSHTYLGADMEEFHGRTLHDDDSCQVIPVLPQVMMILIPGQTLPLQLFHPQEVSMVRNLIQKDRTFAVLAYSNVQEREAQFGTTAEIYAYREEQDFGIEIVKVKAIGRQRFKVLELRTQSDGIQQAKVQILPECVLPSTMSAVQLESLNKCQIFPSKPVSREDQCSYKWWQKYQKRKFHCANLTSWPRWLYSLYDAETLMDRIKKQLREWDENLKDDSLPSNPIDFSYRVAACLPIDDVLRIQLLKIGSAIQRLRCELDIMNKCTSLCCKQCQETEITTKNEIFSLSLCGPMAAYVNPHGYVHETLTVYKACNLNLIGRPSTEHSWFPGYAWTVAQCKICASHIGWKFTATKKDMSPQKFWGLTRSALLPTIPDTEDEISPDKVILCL
- measurement.description: log2 fold change of degron read counts, EGFP-low vs EGFP+ sorted cells (limma voom), compound-induced degradation; higher = more compound-induced degradation of the degron-EGFP fusion; degrons are variants of IKZF1/3 zinc finger 2; compound dose not given here
- experimental.parameters: Jurkat; 18 h; compound: compound 22 (5-morpholino-thalidomide)
In all, about 8,300 sequences were measured (“log2 fold change of degron read counts, EGFP-low vs EGFP+ sorted cells (limma voom), compound-induced degradation”: median about -1.1, highest 2% from about 3.2 on). Many of the other results were omitted from the sample, so the highest values are more common in it than they were.
Below, each entry is listed with its recorded log2 fold change of degron read counts.
Answer as a number with no unit attached.

Known results for sequences:
The sequence listed as FECPICGHEFTQKGNLLRHIKL [46F_47E_49P_50I_52G_53H_54E_55F_67L_, Q9UKT9] has a reported log2 fold change of degron read counts of -3.29

The sequence listed as FVCEICGHPFTQKGNLLRHIKL [46F_47V_49E_50I_52G_53H_54P_55F_67L_, Q9UKT9] has a reported log2 fold change of degron read counts of -1.66

The sequence listed as FSCPICGHVFTQKGNLLRHIKL [46F_47S_49P_50I_52G_53H_54V_55F_67L_, Q9UKT9] has a reported log2 fold change of degron read counts of -2.29

The sequence listed as FACEICGRYFTQKGNLLRHIKL [46F_47A_49E_50I_52G_53R_54Y_55F_67L_, Q9UKT9] has a reported log2 fold change of degron read counts of -1.33

The sequence listed as FGCDICGAAFTQKGNLLRHIKL [46F_47G_49D_50I_52G_53A_54A_55F_67L_, Q9UKT9] has a reported log2 fold change of degron read counts of 0.584

Continuing:
The sequence listed as FHCEICGRSFTQKGNLLRHIKL [46F_47H_49E_50I_52G_53R_54S_55F_67L_, Q9UKT9] has a reported log2 fold change of degron read counts of -1.82

The sequence listed as LRCPICGFDCTQKGNLLRHIKL [46L_47R_49P_50I_52G_53F_54D_55C_67L_, Q9UKT9] has a reported log2 fold change of degron read counts of -1.07
